- ASSAYED SYSTEM: human TLR7 (Homo sapiens (Human), UniProt Q9NYK1)
- Sequence (Q9NYK1 27-1049): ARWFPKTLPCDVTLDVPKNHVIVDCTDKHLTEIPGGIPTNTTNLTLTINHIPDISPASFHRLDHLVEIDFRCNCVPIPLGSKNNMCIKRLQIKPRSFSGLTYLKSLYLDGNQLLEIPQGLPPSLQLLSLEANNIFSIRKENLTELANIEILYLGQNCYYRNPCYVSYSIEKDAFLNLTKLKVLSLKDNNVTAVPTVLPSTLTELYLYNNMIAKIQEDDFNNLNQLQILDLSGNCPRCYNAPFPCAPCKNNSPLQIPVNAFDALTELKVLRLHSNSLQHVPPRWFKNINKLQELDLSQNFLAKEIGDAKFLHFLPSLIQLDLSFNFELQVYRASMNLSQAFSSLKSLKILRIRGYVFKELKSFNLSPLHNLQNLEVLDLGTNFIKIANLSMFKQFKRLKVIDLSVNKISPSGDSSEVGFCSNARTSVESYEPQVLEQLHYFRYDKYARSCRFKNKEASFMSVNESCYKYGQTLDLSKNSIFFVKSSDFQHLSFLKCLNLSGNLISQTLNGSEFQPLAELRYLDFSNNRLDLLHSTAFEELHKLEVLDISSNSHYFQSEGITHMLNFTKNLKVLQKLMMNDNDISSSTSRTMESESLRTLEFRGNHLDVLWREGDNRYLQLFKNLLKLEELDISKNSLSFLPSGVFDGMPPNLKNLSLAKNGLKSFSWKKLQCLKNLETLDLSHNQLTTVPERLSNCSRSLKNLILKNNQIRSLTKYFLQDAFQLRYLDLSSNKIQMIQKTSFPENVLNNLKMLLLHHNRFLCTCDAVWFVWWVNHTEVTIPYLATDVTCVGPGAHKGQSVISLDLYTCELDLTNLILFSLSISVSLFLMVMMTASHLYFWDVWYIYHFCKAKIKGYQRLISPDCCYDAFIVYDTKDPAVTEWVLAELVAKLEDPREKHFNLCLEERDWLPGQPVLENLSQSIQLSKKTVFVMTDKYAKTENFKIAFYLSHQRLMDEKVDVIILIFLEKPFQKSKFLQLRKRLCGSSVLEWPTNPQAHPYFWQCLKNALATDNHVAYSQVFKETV
- PROTOCOL TEXT: TLR7 inhibition reporter assay (HEK-Blue SEAP)
- CONDITION SET: HEK-Blue cells overexpressing human TLR7, gardiquimod 7.5 μM stimulation
TEST READOUT: pIC50
Hey, just a heads up that pIC50 is the negative log base 10 of the concentration in molar.

(Q) Entry Cc1c(-c2[nH]c3cnc(N4CCN(C(=O)CN(C)C)CC4)c(F)c3c2C(C)C)cn2ncnc2c1C [Example 422] : reported pIC50 = ?
(A) 8.51

(Q) Field entry: Cc1c(-c2[nH]c3cnc(C4CCC(N5CCC5)CC4)c(F)c3c2C(C)C)cn2ncnc2c1C (stereo not shown) [Example 233]
(A) 8.57

(Q) Field entry: Cc1c(-c2[nH]c3cnc(C4CCNCC4)c(F)c3c2C(C)C)cn2ncnc2c1C [Example 13]
(A) 8.19

(Q) Field entry: Cc1c(-c2[nH]c3cnc(C4CCC(NC5CCOCC5)CC4)c(F)c3c2C(C)C)cn2ncnc2c1C (stereo not shown) [Example 232]
(A) 7.96

(Q) Field entry: Cc1c(-c2[nH]c3cnc(N4CCN(C5CCOCC5)C[C@H]4C)c(F)c3c2C(C)C)cn2ncnc2c1C [Example 456]
(A) 8.24

(Q) Field entry: Cc1cc(-c2[nH]c3cnc(C4CCN(CCS(C)(=O)=O)CC4)c(F)c3c2C(C)C)cn2ncnc12 [Example 149]
(A) 8.44

(Q) Field entry: COc1cc(-c2[nH]c3cnc(N4CCN(CC(=O)N(C)C)CC4)c(Cl)c3c2C(C)C)cn2ncnc12 [Example 305]
(A) 8.60
